The values you see were collected from ChEMBL document CHEMBL1156610.

- targetUnderTest: UniProtKB P08684
- Sequence (P08684 whole entry): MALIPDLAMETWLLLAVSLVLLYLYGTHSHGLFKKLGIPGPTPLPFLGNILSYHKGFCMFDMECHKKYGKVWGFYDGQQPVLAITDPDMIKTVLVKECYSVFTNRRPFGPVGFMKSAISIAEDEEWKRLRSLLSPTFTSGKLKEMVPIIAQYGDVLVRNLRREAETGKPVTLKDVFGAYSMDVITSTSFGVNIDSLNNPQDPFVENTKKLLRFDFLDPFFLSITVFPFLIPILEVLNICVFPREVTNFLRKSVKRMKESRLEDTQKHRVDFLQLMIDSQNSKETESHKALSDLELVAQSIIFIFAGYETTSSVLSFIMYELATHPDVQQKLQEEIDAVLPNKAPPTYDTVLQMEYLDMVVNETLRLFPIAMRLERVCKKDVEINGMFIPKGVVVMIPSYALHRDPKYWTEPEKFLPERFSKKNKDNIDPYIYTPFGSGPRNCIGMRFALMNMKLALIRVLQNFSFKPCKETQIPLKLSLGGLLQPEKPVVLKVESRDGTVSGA
- assayComment: Inhibition of hepatic CYP3A4 expressed in insect microsomes at 1 uM
- Assay type: ADME, Microsome
parameterMeasured: inhibition at 1 µM (%)

Reference set (5 entries):
CC(c1ccc2c(c1)[nH]c1ccccc12)n1ccnc1 (centres undefined) = 88
Fc1ccc(-c2ccc(C(CCCl)n3ccnc3)cc2)cc1 (centres undefined) = 86
CC(c1ccc2c(c1)Cc1ccccc1-2)n1ccnc1 (centres undefined) = 89
CC(c1ccc2c(c1)[nH]c1cc(F)ccc12)n1ccnc1 (centres undefined) = 75
CC(c1ccc2c(c1)Cc1cc(O)ccc1-2)n1ccnc1 (centres undefined) = 89

P = CCC(c1ccc(-c2ccc(F)cc2)cc1)n1ccnc1 (centres undefined)
Q = C[C@]12CC[C@H](O)CC1=CC[C@@H]1[C@@H]2CC[C@]2(C)C(c3cccnc3)=CC[C@@H]12 [ABIRATERONE]
R = CCC(c1ccc(-c2ccc(NC(=O)OC(C)(C)C)cc2)cc1)n1ccnc1 (centres undefined)
// query Rank order required: inhibition at 1 µM, descending. List labels; respect the requested ordering.
// result P, R, Q
